System: anaesthetized rats
protocol summary: Haemodynamic profile in anaesthetized rats
Assay type: in vivo
cond: i.v.
Entries and their i.v. duration of action on heart rate (rat)
property name: i.v. duration of action on heart rate (rat)

- molecule: "CCC(CNC(=O)c1ccc(OC)c(OC)c1)N(C)CCN(C)C(CC)CNC(=O)c1ccc(OC)c(OC)c1 (stereo not shown)"
  study system: "anaesthetized rats"
  result: "5 to 10 min"
- molecule: "CCC(CNC(=O)c1cccc(Cl)c1)N(C)CCN(C)C(CC)CNC(=O)c1cccc(Cl)c1 (stereo not shown)"
  study system: "anaesthetized rats"
  result: "10 min"
- molecule: "CCC(CNC(=O)c1cc(Cl)cc(Cl)c1)N(C)CCN(C)C(CC)CNC(=O)c1cc(Cl)cc(Cl)c1 (stereo not shown) [Compound E2]"
  study system: "anaesthetized rats"
  result: "15 min"
- molecule: "CCC(CNC(=O)c1cccnc1)N(C)CCN(C)C(CC)CNC(=O)c1cccnc1 (stereo not shown)"
  study system: "anaesthetized rats"
  result: "10 min"
- molecule: "CCC(CNC(=O)c1ccc(C#N)cc1)N(C)CCN(C)C(CC)CNC(=O)c1ccc(C#N)cc1 (stereo not shown)"
  study system: "anaesthetized rats"
  result: "5 to 10 min"
- molecule: "CCC(CNC(=O)c1ccncc1)N(C)CCN(C)C(CC)CNC(=O)c1ccncc1 (stereo not shown)"
  study system: "anaesthetized rats"
  result: "10 min"
- molecule: "CCC(CNC(=O)c1cc(OC)c(OC)c(OC)c1)N(C)CCN(C)C(CC)CNC(=O)c1cc(OC)c(OC)c(OC)c1 (stereo not shown) [Compound E1]"
  study system: "anaesthetized rats"
  result: "5 min"
- molecule: "CCC(CNC(=O)c1ccc2c(c1)OCO2)N(C)CCN(C)C(CC)CNC(=O)c1ccc2c(c1)OCO2 (stereo not shown)"
  study system: "anaesthetized rats"
  result: "10 to 15 min"
- molecule: "COc1cc(C(=O)NCC2CCCCN2CCN2CCCCC2CNC(=O)c2cc(OC)c(OC)c(OC)c2)cc(OC)c1OC (stereo not shown)"
  study system: "anaesthetized rats"
  result: "10 min"
- molecule: "CCC(CNC(=O)c1cc(OC)c(OC)c(OC)c1)N1CCC(N(C)C(CC)CNC(=O)c2cc(OC)c(OC)c(OC)c2)CC1 (stereo not shown)"
  study system: "anaesthetized rats"
  result: "10 to 15 min"

Origin of values: patent EP0174085A2
